System: rat unilateral ureteral obstruction release model
Assay: Rat unilateral ureteral obstruction release model: glomerular and tubulointerstitial lesions, Asc-1+ cells;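 note: sum of tubular atrophy and basement membrane thickness and interstitial fibrosis scores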
Format: in vivo, SD rat
Settings: group average ± standard deviation
Reported Tubulointerstitial lesion: total score values follow for various molecules
Value Kind: Tubulointerstitial lesion: total score

| Molecule | Value Kind | Numeric Result |
| --- | --- | --- |
| C[C@@H](OC[C@]1(Oc2ccc(F)cc2)CCC(=O)O1)c1ccc2ccccc2c1 | Tubulointerstitial lesion: total score | 3.4 |
| O=C1CCC(F)(C(=O)OCc2ccccc2)O1 (stereo not shown) | Tubulointerstitial lesion: total score | 3.9 |
| O=C1OC(Cl)(C(=O)OCc2ccccc2)c2ccccc21 (stereo not shown) | Tubulointerstitial lesion: total score | 1.4 |
| C[C@@H](OC[C@@]1(Oc2ccc(F)cc2)CCC(=O)O1)c1ccc2ccccc2c1 | Tubulointerstitial lesion: total score | 7.0 |
